Data origin, for the record: the supplement of paper PMC10307832

Tested on: NCI-H838
Experiment: relative viability (nuclei count vs DMSO), 5 days (fraction); higher = more cells survive
Settings: first compound 0.002 µM
Label label 1 when relative viability < 0.8; otherwise label 0.

Worked examples follow.
molecule	assigned label
CCNC(=O)c1noc(-c2cc(C(C)C)c(O)cc2O)c1-c1ccc(CN2CCOCC2)cc1 [Luminespib] + CC(C)C[C@H](NC(=O)[C@H](Cc1ccccc1)NC(=O)c1cnccn1)B(O)O [Bortezomib] (partner 0.002 µM)	label 0
CCNC(=O)c1noc(-c2cc(C(C)C)c(O)cc2O)c1-c1ccc(CN2CCOCC2)cc1 [Luminespib] + Cc1nc(NC(=O)N2CCC[C@H]2C(N)=O)sc1-c1ccnc(C(C)(C)C(F)(F)F)c1 [Alpelisib] (partner 2 µM)	label 0
CCNC(=O)c1noc(-c2cc(C(C)C)c(O)cc2O)c1-c1ccc(CN2CCOCC2)cc1 [Luminespib] + NC(=O)Nc1cc(-c2cccc(F)c2)sc1C(=O)N[C@H]1CCCNC1 [AZD7762] (partner 0.2 µM)	label 0
CCNC(=O)c1noc(-c2cc(C(C)C)c(O)cc2O)c1-c1ccc(CN2CCOCC2)cc1 [Luminespib] + CC(=O)c1c(C)c2cnc(Nc3ccc(N4CCNCC4)cn3)nc2n(C2CCCC2)c1=O [Palbociclib] (partner 0.5 µM)	label 1
CCNC(=O)c1noc(-c2cc(C(C)C)c(O)cc2O)c1-c1ccc(CN2CCOCC2)cc1 [Luminespib] + N=C(N)NC(=N)NCCc1ccccc1 [Phenformin] (partner 250 µM)	label 1

API: the following record is the query input.
Bench note: check whether CCNC(=O)c1noc(-c2cc(C(C)C)c(O)cc2O)c1-c1ccc(CN2CCOCC2)cc1 [Luminespib] + Nc1nc2[nH]cc(CCc3ccc(C(=O)N[C@@H](CCC(=O)O)C(=O)O)cc3)c2c(=O)[nH]1 [Pemetrexed] (partner 0.2 µM) shows relative viability below 0.8 label 1
